All values here come from PubChem BioAssay.

- measurement protocol: reduction of polyQ htt aggregates in cells – imaging, exon1htt(103Q)mCFP cells, high-content imaging, primary screen (AID 483);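 also: compound exposure lasted 3 days before fixation; percent of the per-plate median nuclei count of sample wells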
- measurement conditions: exon1htt(103Q)mCFP cell line, aggregate imaging, at 2 µM; measured here: cell count, toxicity
endpoint: nuclei count (%)
# unit: % | format: bare number

(Q) I am curious: what nuclei count value has been reported for CCOC(=O)Cc1csc(NC(=O)CN(C)S(=O)(=O)c2ccc3c(c2)CCC(=O)N3)n1 ?
(A) 29.2

(Q) // nuclei count lookup, key: Cc1ccccc1Nc1nc(N)nc(CSCc2c(C)noc2C)n1
(A) 93.8

(Q) // query nuclei count value for entry Cc1ccc(S(=O)(=O)N(CCO)c2cc3c(s2)CCCC3)cc1
(A) 73.1

(Q) Consider the compound O=C(Nc1ccc2c(c1)OCO2)c1cc2ncc(Br)cn2n1 and give its measured nuclei count.
(A) 107

(Q) I have this compound here, Cn1c(=O)[nH]c(=O)c2c1nc(Br)n2Cc1ccccc1F , and I need its recorded nuclei count.
(A) 68.3

(Q) Request the reported nuclei count associated with CCSc1nc2ccccc2n1CC(N)=O
(A) 114

(Q) Would you mind telling me what nuclei count value was observed for Cc1cccc(-n2ncc3c(N(CCO)CCO)ncnc32)c1 ?
(A) 53.9

(Q) Which nuclei count value is on record for CC1CCN(CCc2nc3cc(NS(=O)(=O)c4ccc(F)cc4)ccc3n2C)CC1 ?
(A) 97.6

(Q) For the compound shown here, O=C(Nc1cccnc1)c1noc2c1CCCCC2 , give the reported nuclei count.
(A) 98.5

(Q) Would you mind telling me what nuclei count value was observed for COC(=O)CCSCc1cn2cc(Cl)ccc2n1 ?
(A) 103

(Q) Recorded nuclei count of COc1cccc(C2=Nn3c(nnc3-c3ccccc3O)SC2)c1 , please.
(A) 99.4

(Q) // returns reported nuclei count for input Cc1ccc(N2C(=O)c3ccccc3C2O)nc1 (stereo not drawn)
(A) 117

(Q) What measured nuclei count goes with CC(C)(C)Cc1nc(-c2ccccn2)no1 ?
(A) 109
